Entries and their Kd
# EXPERIMENTAL_TARGET: UmpK (UMP/CMP kinase) (Dictyostelium discoideum)
# Construct: gene pyrK; recombinant, expressed and purified as in Supporting Information; details not in main text
# Sequence (P20425 whole entry): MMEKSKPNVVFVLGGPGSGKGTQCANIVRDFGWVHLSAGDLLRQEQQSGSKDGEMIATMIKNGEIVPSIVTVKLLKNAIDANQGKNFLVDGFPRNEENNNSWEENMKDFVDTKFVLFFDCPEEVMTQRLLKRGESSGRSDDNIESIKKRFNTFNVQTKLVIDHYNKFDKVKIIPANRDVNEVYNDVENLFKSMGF
# PROCEDURE_DETAILS: biochemical
# Design: fluorescence titration, equilibrium binding / displacement of fluorescent MANT-ADP
# ASSAY_CONDITIONS: 5 mM MgCl2, alone; read-out: UmpK wild-type (5 mM MgCl2) Alone
Please format your answer as a value with the unit trailing.

Some solved cases for reference:
• O=c1ccn([C@@H]2O[C@H](COP(=O)(O)OP(=O)(O)O)[C@@H](O)[C@H]2O)c(=O)[nH]1 [UDP] = 600 µM
• Nc1ccn([C@@H]2O[C@H](COP(=O)(O)OP(=O)(O)O)[C@@H](O)[C@H]2O)c(=O)n1 [CDP] = 66 µM
• Nc1ncnc2c1ncn2[C@@H]1O[C@H](COP(=O)(O)OP(=O)(O)O)[C@@H](O)[C@H]1O [ADP] = 80 µM
• Nc1ncnc2c1ncn2[C@@H]1O[C@H](COP(=O)(O)OP(=O)(O)OP(=O)(O)O)[C@@H](O)[C@H]1O [ATP] = 51 µM

As a next step, examine the compound that follows.
**Query** Given Nc1ccn([C@@H]2O[C@H](COP(=O)(O)O)[C@@H](O)[C@H]2O)c(=O)n1 [CMP] , state its recorded Kd.
**Result** 77 µM
